- ASSAYED_SYSTEM: T1, Human complement C4 protein (Millipore Sigma, Cat. 204886) (human, UniProt P0C0L4 20-675; P0C0L4 680-1446; P0C0L4 1454-1744, limits assumed, natural sulfotyrosines)
- T1 construct: mature
- T1 sequence (P0C0L4 20-675 limits assumed, form in doubt, chain 1 of 3): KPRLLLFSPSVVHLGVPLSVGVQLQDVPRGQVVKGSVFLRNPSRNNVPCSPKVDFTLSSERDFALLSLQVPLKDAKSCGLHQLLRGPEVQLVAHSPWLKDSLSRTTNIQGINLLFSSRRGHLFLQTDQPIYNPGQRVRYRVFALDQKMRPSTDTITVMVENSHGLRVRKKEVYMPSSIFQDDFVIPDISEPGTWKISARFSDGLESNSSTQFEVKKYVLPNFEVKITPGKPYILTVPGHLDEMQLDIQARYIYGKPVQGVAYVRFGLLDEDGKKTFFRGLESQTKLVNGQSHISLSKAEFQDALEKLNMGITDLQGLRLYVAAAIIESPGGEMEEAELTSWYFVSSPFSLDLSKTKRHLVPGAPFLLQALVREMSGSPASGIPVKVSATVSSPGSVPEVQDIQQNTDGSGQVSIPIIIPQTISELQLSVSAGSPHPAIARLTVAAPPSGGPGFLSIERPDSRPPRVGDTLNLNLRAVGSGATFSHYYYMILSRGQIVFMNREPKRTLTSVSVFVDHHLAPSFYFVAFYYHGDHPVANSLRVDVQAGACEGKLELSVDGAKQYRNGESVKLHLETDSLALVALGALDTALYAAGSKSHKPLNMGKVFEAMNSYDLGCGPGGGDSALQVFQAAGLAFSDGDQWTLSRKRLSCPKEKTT
- T1 sequence (P0C0L4 680-1446 limits assumed, form in doubt, chain 2 of 3): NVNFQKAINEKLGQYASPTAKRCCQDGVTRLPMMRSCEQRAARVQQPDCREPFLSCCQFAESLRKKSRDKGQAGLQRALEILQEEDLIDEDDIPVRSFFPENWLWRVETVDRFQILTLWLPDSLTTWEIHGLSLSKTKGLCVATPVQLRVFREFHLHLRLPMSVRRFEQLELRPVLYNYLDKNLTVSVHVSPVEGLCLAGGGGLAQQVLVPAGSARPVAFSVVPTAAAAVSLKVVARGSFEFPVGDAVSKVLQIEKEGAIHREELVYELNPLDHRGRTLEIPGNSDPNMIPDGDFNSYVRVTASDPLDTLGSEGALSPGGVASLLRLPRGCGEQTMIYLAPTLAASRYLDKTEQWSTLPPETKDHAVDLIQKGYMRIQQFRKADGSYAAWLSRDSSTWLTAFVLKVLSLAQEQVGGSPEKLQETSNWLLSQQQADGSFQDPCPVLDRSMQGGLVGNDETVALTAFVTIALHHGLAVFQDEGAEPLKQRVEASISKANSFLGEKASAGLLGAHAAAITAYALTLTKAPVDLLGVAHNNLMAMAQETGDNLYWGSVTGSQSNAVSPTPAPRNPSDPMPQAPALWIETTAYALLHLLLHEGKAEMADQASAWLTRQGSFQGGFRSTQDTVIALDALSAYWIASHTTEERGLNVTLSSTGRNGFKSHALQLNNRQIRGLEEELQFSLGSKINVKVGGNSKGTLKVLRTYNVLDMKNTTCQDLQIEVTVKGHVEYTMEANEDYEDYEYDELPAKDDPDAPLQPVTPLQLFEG
- T1 sequence (P0C0L4 1454-1744 limits assumed, form in doubt, chain 3 of 3): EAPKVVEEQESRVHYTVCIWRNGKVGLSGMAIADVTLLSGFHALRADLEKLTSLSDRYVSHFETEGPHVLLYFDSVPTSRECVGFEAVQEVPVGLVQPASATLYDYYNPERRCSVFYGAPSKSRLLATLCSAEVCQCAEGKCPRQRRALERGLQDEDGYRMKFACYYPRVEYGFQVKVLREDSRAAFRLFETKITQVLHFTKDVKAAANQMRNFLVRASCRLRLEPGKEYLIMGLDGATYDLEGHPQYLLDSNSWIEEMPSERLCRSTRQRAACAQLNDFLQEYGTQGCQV
- ASSAY_OVERVIEW: ELISA, 50 nM mAb
Decision: binding normalized to PSGL-1 >= 0.5 yields Yes, all other cases yield No.

Reference set, count: 4
{"columns": ["BINDER", "LABEL_VALUE"],
 "data": [
  ["16L15 (antibody, V domains shown, From mouse immunisation; only variable domains given) VH: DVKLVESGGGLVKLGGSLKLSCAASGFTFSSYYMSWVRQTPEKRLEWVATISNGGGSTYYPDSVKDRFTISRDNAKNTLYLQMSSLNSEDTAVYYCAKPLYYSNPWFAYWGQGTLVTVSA VL: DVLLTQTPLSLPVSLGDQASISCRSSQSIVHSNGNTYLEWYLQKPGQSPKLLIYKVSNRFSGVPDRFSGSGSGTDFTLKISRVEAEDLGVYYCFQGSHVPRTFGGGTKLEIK", "No"],
  ["09A02 (antibody, IgG4, V domains shown) VH: EVQLVQSGGGLVKPGGSLRLSCAASGFTFRTAWMSWVRQAPGKGLEWVGRMKSKNDGGTTDYAAPVKGRFTISRDDSRDTVYLQMNSLKTEDTGVYYCATYAAGATVPWGQGTLVTVSS VL: DIVMTQTPLSAPVTLGQPASISCRSSRSLLQRNGYNYVDWYQQKAGNPPRLLIYLGSRRASGVPDRFSGSGSDKDFTLKISRVEADDVGFYFCKQSLQAPPTFGGGTKIEIT", "Yes"],
  ["08C07 (antibody, IgG4, V domains shown) VH: QMQLVQSGAEVKKPGSSVKVSCKASGGTFSNYGMIWVRQAPRQGLEWMGRIIPFLDKPDYSEKFQDRITFTADKSTSTVYMELRGLRSDDTAVYYCAKWTSTLQGITTGQTWGQGTLVTVSS VL: QPVLTQPPSASGTPGQRVTISCSGSSSNIGGSYMYWYQQFPGTAPKLLIYRNNQRPSGVPDRFSGSKSGTSASLAISGLRSEDEADYYCAAWDVSLSGWVFGGGTKLTVL", "Yes"],
  ["10F01 (antibody, IgG4, V domains shown) VH: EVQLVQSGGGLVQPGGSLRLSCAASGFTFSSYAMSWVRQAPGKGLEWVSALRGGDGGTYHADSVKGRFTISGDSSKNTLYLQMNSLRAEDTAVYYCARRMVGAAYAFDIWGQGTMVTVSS VL: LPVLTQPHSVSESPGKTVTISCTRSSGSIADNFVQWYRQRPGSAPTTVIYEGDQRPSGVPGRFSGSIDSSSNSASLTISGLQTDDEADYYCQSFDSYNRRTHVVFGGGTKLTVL", "No"]
]}

Let us examine a further case.
Dear colleague, could you confirm whether 03D07 (antibody, IgG4, V domains shown) VH: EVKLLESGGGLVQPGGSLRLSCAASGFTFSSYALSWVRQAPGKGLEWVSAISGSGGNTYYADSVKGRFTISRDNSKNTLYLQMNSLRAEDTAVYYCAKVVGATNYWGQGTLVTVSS VL: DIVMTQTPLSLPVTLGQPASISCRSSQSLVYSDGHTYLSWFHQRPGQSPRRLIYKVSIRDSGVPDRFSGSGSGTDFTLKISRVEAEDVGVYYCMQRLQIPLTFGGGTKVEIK has binding normalized to PSGL-1 at or above 0.5? Yes

The origin of these recorded values is patent US20220396632A1.
